Each entry below carries its reported SPOT peptide array binding signal intensity.
# Tested On: AgLsb1
# Assay Notes: SPOT peptide array binding signal intensity (averaged, normalized) (arbitrary units (background-subtracted, floor 0; scale differs between SH3 domains)); higher = stronger binding of the SH3 domain to the peptide
Please reply with the value in numeric form only.

RLPAPPPPPRRGPAP    5.25

[Q] Look up SPOT peptide array binding signal intensity of AGKRRLPLVRFKASD and report it.
[A] 4
